# Study Target: Ubiquitin-activating enzyme e1, putative (Leishmania donovani (strain BPK282A1)) (UniProt E9BSI1)
# Sequence (whole entry): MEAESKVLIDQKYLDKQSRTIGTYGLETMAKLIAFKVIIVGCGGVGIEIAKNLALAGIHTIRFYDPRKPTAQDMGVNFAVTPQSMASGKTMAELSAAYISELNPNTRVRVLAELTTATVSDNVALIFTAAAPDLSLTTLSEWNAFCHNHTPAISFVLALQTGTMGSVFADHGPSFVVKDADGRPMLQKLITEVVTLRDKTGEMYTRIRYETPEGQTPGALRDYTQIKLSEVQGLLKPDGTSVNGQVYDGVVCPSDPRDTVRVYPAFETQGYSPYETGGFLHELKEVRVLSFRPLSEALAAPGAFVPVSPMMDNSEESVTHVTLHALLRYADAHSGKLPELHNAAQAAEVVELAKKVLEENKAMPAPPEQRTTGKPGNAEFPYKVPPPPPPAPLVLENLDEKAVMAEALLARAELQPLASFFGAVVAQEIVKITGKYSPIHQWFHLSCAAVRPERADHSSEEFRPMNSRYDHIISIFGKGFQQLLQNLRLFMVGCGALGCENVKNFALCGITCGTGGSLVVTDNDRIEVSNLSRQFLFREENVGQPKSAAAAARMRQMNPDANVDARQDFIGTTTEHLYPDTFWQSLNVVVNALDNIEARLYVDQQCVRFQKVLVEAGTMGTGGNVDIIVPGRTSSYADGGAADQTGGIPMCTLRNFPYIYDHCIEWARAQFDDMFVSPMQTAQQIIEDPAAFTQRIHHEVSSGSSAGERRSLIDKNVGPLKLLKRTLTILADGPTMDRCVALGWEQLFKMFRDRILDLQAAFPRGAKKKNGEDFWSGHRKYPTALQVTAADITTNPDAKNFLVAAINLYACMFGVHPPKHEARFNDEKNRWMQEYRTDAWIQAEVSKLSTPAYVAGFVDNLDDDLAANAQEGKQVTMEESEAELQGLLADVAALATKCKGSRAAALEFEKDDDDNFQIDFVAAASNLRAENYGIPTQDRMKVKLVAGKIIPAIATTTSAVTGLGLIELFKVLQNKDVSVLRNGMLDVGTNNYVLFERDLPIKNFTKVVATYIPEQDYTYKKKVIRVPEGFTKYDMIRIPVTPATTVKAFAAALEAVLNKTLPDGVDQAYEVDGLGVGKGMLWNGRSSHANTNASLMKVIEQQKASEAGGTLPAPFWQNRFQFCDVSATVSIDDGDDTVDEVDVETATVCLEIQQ
# Experiment Description: Leishmania donovani Ubiquitin Activating Enzyme (LdE1)
# Assay type: functional
# Set-up: scale not given: direction of the effect not stated beside the values
# Settings: 30 µM
Potency and affinity values are given separately.
Quantity Kind: Percent Effect (%)

[[record]]
compound = "CC(C(=O)NCCOc1ccc2c(c1)OCO2)n1cncn1 (centres undefined)"
test_result = 20.2

[[record]]
compound = "Cc1cnn(CCNCc2csc(-c3ccc4c(c3)OCO4)n2)c1"
test_result = -13.2

[[record]]
compound = "CC(C(=O)NCc1ccnc(Oc2ccc(F)cc2)c1)n1cncn1 (centres undefined)"
test_result = -54

[[record]]
compound = "CCn1c(Cn2cncn2)nnc1C1CCN(Cc2ccncc2)CC1"
test_result = 5.41

[[record]]
compound = "Cc1ccc(OCCC(=O)NC2CCc3nc(C)cn3C2)cc1 (centres undefined)"
test_result = 5.26

[[record]]
compound = "CN1CCc2cc(C(CNS(=O)(=O)c3cccs3)N3CCCC3)ccc21 (centres undefined)"
test_result = 13

[[record]]
compound = "CCOC(=O)c1sc2ccsc2c1CNC(=O)C(C)(C)C#N"
test_result = 0

[[record]]
compound = "Cn1c2c(ccc1=O)CC(NS(C)(=O)=O)CC2 (centres undefined)"
test_result = 5.33

[[record]]
compound = "Cc1ccc(CN(CCCn2ccnc2)Cc2c[nH]cn2)s1"
test_result = 9.46

[[record]]
compound = "O=C(Cc1cccc(F)c1)N1CCCCC1c1ccn2ccnc2n1 (centres undefined)"
test_result = -4.05

[[record]]
compound = "COc1ccccc1OCc1cc(C(=O)N2CCN[C@H](C)C2)n[nH]1"
test_result = 8.11

[[record]]
compound = "COc1ccc2nnc(CCCC(=O)NCc3cccn3C)n2n1"
test_result = 22.7

[[record]]
compound = "O=C(Cn1cccnc1=O)NC(Cc1cccs1)c1ccccn1 (centres undefined)"
test_result = 9.46

[[record]]
compound = "COCCN1C(=O)CC(N2CCN(c3ccc(OC)cc3)CC2)C1=O (centres undefined)"
test_result = 6.94

[[record]]
compound = "Cc1ccc(-c2ncc(C(=O)NCCNC(=O)C(C)C)s2)c(C)c1"
test_result = 5.41

[[record]]
compound = "O=C(C1CCN(c2snc3ccccc23)CC1)N1CCCCCC1"
test_result = 24.1

[[record]]
compound = "Cc1cc2nc(SCC(=O)N3CCCC3)n(-c3ccccc3)c(=O)c2[nH]1"
test_result = 2.63

[[record]]
compound = "c1ccc(C2CCCN2Cc2nnnn2C2CC2)cc1 (centres undefined)"
test_result = -6.94

[[record]]
compound = "O=C(NCCN1CCCCCC1=O)c1n[nH]c(=O)c2ccccc12"
test_result = 15.6


---

# Study Target: Tyrosyl-tRNA synthetase, putative (Trypanosoma cruzi (strain CL Brener))
# Experiment Description: Trypanosoma cruzi tyrosyl tRNA synthetase (TcYRS) _High Tyrosine SOP; also: in the data most compounds retested in dose-response had high values
# Format: functional
# Parameters: scale not given: direction of the effect not stated beside the values
# Settings: 30 µM
Quantity Kind: Percent Effect (%)

[[record]]
molecule = "Cc1cc(-c2nnn(CCNS(C)(=O)=O)n2)ccc1F"
study_target = "Tyrosyl-tRNA synthetase, putative (Trypanosoma cruzi (strain CL Brener))"
test_result = 9.38

[[record]]
molecule = "CC(=O)c1cn(CCC(=O)NCCC(=O)O)c2ccccc12"
study_target = "Tyrosyl-tRNA synthetase, putative (Trypanosoma cruzi (strain CL Brener))"
test_result = 9.52

[[record]]
molecule = "CNS(=O)(=O)c1ccc(C(=O)N2CCCC2c2cnn(C)c2)o1 (stereo not drawn)"
study_target = "Tyrosyl-tRNA synthetase, putative (Trypanosoma cruzi (strain CL Brener))"
test_result = 1.48

[[record]]
molecule = "Cc1cccc(C2(C(=O)NCCCn3cccn3)CC2)c1"
study_target = "Tyrosyl-tRNA synthetase, putative (Trypanosoma cruzi (strain CL Brener))"
test_result = 3.23

[[record]]
molecule = "CCn1cc(CN2CCCN(C(=O)CCc3ccncc3)CC2)cn1"
study_target = "Tyrosyl-tRNA synthetase, putative (Trypanosoma cruzi (strain CL Brener))"
test_result = 8.74

[[record]]
molecule = "CCn1cnnc1CNC(=O)NC(C)C(C)C (stereo not drawn)"
study_target = "Tyrosyl-tRNA synthetase, putative (Trypanosoma cruzi (strain CL Brener))"
test_result = 2.91

[[record]]
molecule = "Cc1nc(C)n(CC2CN(c3ncccn3)Cc3nccn3C2)n1 (stereo not drawn)"
study_target = "Tyrosyl-tRNA synthetase, putative (Trypanosoma cruzi (strain CL Brener))"
test_result = 2.15

[[record]]
molecule = "COCCN1CCN(C(C)C(=O)Nc2ccnn2C(C)C)CC1 (stereo not drawn)"
study_target = "Tyrosyl-tRNA synthetase, putative (Trypanosoma cruzi (strain CL Brener))"
test_result = 4.95

[[record]]
molecule = "CNC(=O)c1ccc(C(=O)N2CCCC(n3cc(C)cn3)C2)cn1 (stereo not drawn)"
study_target = "Tyrosyl-tRNA synthetase, putative (Trypanosoma cruzi (strain CL Brener))"
test_result = 9.71

[[record]]
molecule = "O=C1OC2(CCN(C3CCCOC3)CC2)CN1CCc1ccccc1 (stereo not drawn)"
study_target = "Tyrosyl-tRNA synthetase, putative (Trypanosoma cruzi (strain CL Brener))"
test_result = 3.23

[[record]]
molecule = "CCOc1ccccc1Nc1nc2c(C)nn(C)c2c(=O)n1C"
study_target = "Tyrosyl-tRNA synthetase, putative (Trypanosoma cruzi (strain CL Brener))"
test_result = 8.6

[[record]]
molecule = "CCC1=N[C@@]2(CC[C@@H]3CN(Cc4ccc(Cl)cc4)C[C@@H]32)C(=O)N1C"
study_target = "Tyrosyl-tRNA synthetase, putative (Trypanosoma cruzi (strain CL Brener))"
test_result = 0

[[record]]
molecule = "CCN1CCC(CNC(=O)C2(c3cccc(C)c3)CC2)C1 (stereo not drawn)"
study_target = "Tyrosyl-tRNA synthetase, putative (Trypanosoma cruzi (strain CL Brener))"
test_result = 11.5

[[record]]
molecule = "Cc1nc(C2CCCN2C(=O)CNS(C)(=O)=O)no1 (stereo not drawn)"
study_target = "Tyrosyl-tRNA synthetase, putative (Trypanosoma cruzi (strain CL Brener))"
test_result = 7.1

[[record]]
molecule = "Cc1cc(C)c(CNC(=O)N(C)Cc2sccc2C)c(=O)[nH]1"
study_target = "Tyrosyl-tRNA synthetase, putative (Trypanosoma cruzi (strain CL Brener))"
test_result = 4.43

[[record]]
molecule = "O=C(N1CCOCC1)[C@@]12CCO[C@@H]1CCN(CC1CCCCC1)C2"
study_target = "Tyrosyl-tRNA synthetase, putative (Trypanosoma cruzi (strain CL Brener))"
test_result = -3.17

[[record]]
molecule = "CCc1cnc(N2CC3(CCN(C(=O)c4ccoc4)C3)C2)nc1"
study_target = "Tyrosyl-tRNA synthetase, putative (Trypanosoma cruzi (strain CL Brener))"
test_result = -2.15

[[record]]
molecule = "CC(C)OCCCN1CCCC(c2nc3ccccc3n2C(C)C)C1 (stereo not drawn)"
study_target = "Tyrosyl-tRNA synthetase, putative (Trypanosoma cruzi (strain CL Brener))"
test_result = 9.9

